Biological target: N protein full-length (SARS-CoV-2 (Wuhan-Hu-1), UniProt P0DTC9 1-419)
Experiment: BLI; immobilized DNA, avidity; 10 mM Tris-HCl pH 7.4, 150 mM NaCl, 1 mM MgCl2; FA with 0.1 mg/ml BSA at 25 C; BLI with 0.05% Tween-20; SEC at ambient temperature
Conditions: protein: recombinant; tags: 6xHis-thioredoxin removed by HRV 3C; chain copies: 2; hairpin
valueKind: Kd
Please answer using a numeric value trailed by its unit.

Indicate its recorded Kd; the binder in question is TCGGACATCGGATTGTCTGA (ssDNA) [A58-20]
10.1 pM

Data credit: paper PMC11602162
